test system: colon cancer cells HT-29; test: Efficacy study in nude mouse with xenograft tumor, HT-29; format: in vivo, human; details: Mus musculus, HT-29, sc, 504 h; BALB/cA-nude mice, subcutaneous xenograft, 50 mg/kg intragastric once daily for 21 days, dosed as hydrochloride; read-out: % tumor inhibition (D21) HT-29
quantity_name: inhibition in vivo at 50 mg/kg (%)
Please state the figure in %; there is no need to write the unit.

Example entries and their recorded answers appear below.
CCCN(CCC)CCC(=O)Nc1cc(/C=C\c2cc(OC)c(OC)c(OC)c2)ccc1OC(F)F [Example 8] : 88
CCOc1ccc(/C=C\c2cc(OC)c(OC)c(OC)c2)cc1NC(=O)CCN(CCO)CCO [Example 11] : 89

Okay, now this compound:
-- ask Please look up its inhibition in vivo at 50 mg/kg: CCCCN(CCCC)CCC(=O)Nc1cc(/C=C\c2cc(OC)c(OC)c(OC)c2)ccc1OC [Example 6]
-- reply 90
